This collection of values is drawn from paper PMC5540273.

system: PDGFRB; details: concentration: 1 μM, replicates: in singlicate; n = 1;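 further: KINOMEscan kinase panel screen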
Recorded measurements of %Inh, one per entry
The answer is to be given in %; state only the numeric part.

The following compounds have reported results that may help.
Sample Smiles	Unit Name	%Inh
CC(C)(C)c1ccc(C(=O)Nc2cn3cc(-n4ccnc4)ccc3n2)cc1	%	96.9
O=C(Nc1n[nH]c2nc(-c3cccc(O)c3)ccc12)C1CC1	%	50
N#Cc1cnc2cc(-c3cnc(CNCCN4CCOCC4)s3)ccc2c1Nc1ccc(Oc2ccccc2)cc1	%	24
CCn1cnc2c(NCc3ccccc3)ncnc21	%	0

Entry "Cc1ccc(C)c(NC(=O)Nc2ccc(C)c(-c3ccc(C(=O)Nc4ccncc4)cc3)c2)c1" ; %Inh = 100

Entry "CN(C)CCOc1ccc(-c2cc(-c3ccc(Cl)c(O)c3)c(-c3ccncc3)[nH]2)cc1.Cl.Cl" ; %Inh = 30

Entry "CS(=O)(=O)c1cccc(CNc2nc(Nc3ccc4c(c3)CCC(=O)N4)ncc2C(F)(F)F)c1" ; %Inh = 62

Entry "CC(C)c1nc(-c2cccc(NS(=O)(=O)c3c(F)cccc3F)c2)c(-c2ccnc(Nc3ccc(N4CCOCC4)nc3)n2)s1.Cl" ; %Inh = 100

---

Recorded measurements of %Inh, one per entry
system: DYRK1B; conditions: concentration: 1 μM, replicates: in singlicate; n = 1
The answer is to be given in %; state only the numeric part.

The following molecules have reported results that may help.
Sample Smiles	Parameter	Observed Measurement
Cc1ccc(Nc2ccnc(Nc3ccc(C)c(F)c3)n2)cc1O.Cl	%Inh	0
CC(=O)Nc1cn2nc(Oc3cccc(NC(=O)c4cccc(C(F)(F)F)c4)c3)ccc2n1	%Inh	0

Observed %Inh on DYRK1B, entry "CS(=O)(=O)c1cccc(CNc2nc(Nc3ccc4c(c3)CCC(=O)N4)ncc2C(F)(F)F)c1" , equals 61

Observed %Inh on DYRK1B, entry "O=C(Nc1n[nH]c2cc(-c3cccs3)ccc12)C1CC1" , equals 0

---

tested on: PIM1; conditions: concentration: 1 μM, replicates: in singlicate; n = 1
Parameter: %Inh (%)
The answer is to be given in %; state only the numeric part.

The following molecules have reported results that may help.
Molecule	Unit Name	%Inh
CN(C)CCOc1ccc(-c2cc(-c3ccc(Cl)c(O)c3)c(-c3ccncc3)[nH]2)cc1.Cl.Cl [SB-684387]	%	22
O=C(Nc1n[nH]c2nc(-c3ccccc3)ccc12)C1CC1 [SB-708999]	%	0
CN1CCN(Cc2ccc(NC(=O)Nc3ccc(N(C)c4ccnc(Nc5ccc(CS(C)(=O)=O)cc5)n4)cc3)cc2)CC1.Cl [GW827654]	%	0
CSc1ccc(NC2=C(c3ccc(Cl)cc3)C(=O)NC2=O)cc1 [SB-317658]	%	1

Please turn your attention to the following entry.
Observed %Inh on PIM1, entry CCn1c(-c2nonc2N)nc2c(-c3ccccc3)ncc(OCCCN)c21.O=C(O)C(F)(F)F.O=C(O)C(F)(F)F [GSK260205] , equals 62

---

system: TRKA; construct: gene NTRK1; details: concentration: 1 μM, replicates: in singlicate; n = 1
Parameter: %Inh (%)
The answer is to be given in %; state only the numeric part.

The following molecules have reported results that may help.
Molecule	%Inh [%]
Cc1ccc(O)cc1Nc1ccnc2cc(-c3ccc(CN4CCCCC4)o3)ccc12	42
CC(C)NCC(Cc1ccccc1)NC(=O)c1cc(Br)c(-c2ccnc3[nH]ccc23)s1.Cl.Cl (centres unmarked)	75
Cc1ccccc1CC(=O)N1CCc2cc(-c3cn(C)c4ncnc(N)c34)ccc21	39
Cc1ccc(Nc2ccnc(Nc3ccc(C)c(F)c3)n2)cc1O.Cl	0
CN(c1ccc(NC(=O)N2CCN(CCCN3CCOCC3)CC2)cc1)c1ccnc(Nc2ccc(CS(C)(=O)=O)cc2)n1.Cl	0

Entry "N#Cc1cnc2cc(-c3cnc(CNCCN4CCOCC4)s3)ccc2c1Nc1ccc(Oc2ccccc2)cc1" ; %Inh = 55

Entry "Cn1cc(-c2ccc3c(c2)CCN3C(=O)Cc2cc(F)cc(F)c2F)c2c(N)ncnc21" ; %Inh = 36

Entry "Cc1cc(-c2ccnc(Nc3cccc(C#N)c3)n2)cc(C)c1O" ; %Inh = 78

---

system: ERK4; construct: gene MAPK4; settings: concentration: 1 μM, replicates: in singlicate; n = 1
Parameter: %Inh (%)
The answer is to be given in %; state only the numeric part.

Entry CC(C)NCC(Cc1ccccc1)NC(=O)c1cc(Br)c(-c2ccnc3[nH]ccc23)s1.Cl.Cl (stereo not shown) ; %Inh = 0

Entry "COC(=O)Nc1nc2ccc(Oc3ccc(NC(=O)Nc4cc(C(F)(F)F)ccc4F)cc3)cc2[nH]1.Cl" ; %Inh = 0

Entry "Cn1cc(-c2ccc3c(c2)CCN3C(=O)Cc2cc(F)cc(C(F)(F)F)c2)c2c(N)ncnc21" ; %Inh = 24

Entry "Cc1cc(-c2c(-c3ccc(F)cc3)ncn2CCCN2CCOCC2)nc(N)n1" ; %Inh = 0

---

system: AXL; conditions: concentration: 1 μM, replicates: in singlicate; n = 1
Recorded measurements of %Inh, one per entry

Observed %Inh on AXL, entry "CSc1ccc(NC2=C(c3ccc(Cl)cc3)C(=O)NC2=O)cc1" , equals 10%

Observed %Inh on AXL, entry "COc1cc(Nc2ccnc3cc(-c4ccncc4)ccc23)cc(OC)c1OC.Cl" , equals 31%

Observed %Inh on AXL, entry "COc1cc(Nc2nccc(N3CCC(NS(=O)(=O)c4ccc(NC(C)=O)cc4)CC3)n2)cc(OC)c1OC" , equals 14%

Observed %Inh on AXL, entry "CN1CCN(Cc2ccc(NC(=O)Nc3ccc(N(C)c4ccnc(Nc5ccc(CS(C)(=O)=O)cc5)n4)cc3)cc2)CC1.Cl" , equals 99.3%

---

test system: LATS1; settings: concentration: 1 μM, replicates: in singlicate; n = 1
Recorded measurements of %Inh, one per entry
The answer is to be given in %; state only the numeric part.

Sample Smiles	Unit Name	Observed Measurement
COC(=O)Nc1nc2cc(Oc3ccc(NC(=O)Nc4cccc(SC)c4)cc3)ccc2[nH]1.Cl	%	43

Entry "COc1cccc(C2=C(Nc3cccc(O)c3)C(=O)NC2=O)c1" ; %Inh = 0

Entry "Cn1cc(-c2ccc3c(c2)CCN3C(=O)Cc2cc(F)cc(F)c2F)c2c(N)ncnc21" ; %Inh = 80

Entry "Cc1ccc(C)c(NC(=O)Nc2ccc(C)c(-c3ccc(C(=O)Nc4ccncc4)cc3)c2)c1" ; %Inh = 3

---

system: PRKR; construct: gene EIF2AK2; settings: concentration: 1 μM, replicates: in singlicate; n = 1
Parameter: %Inh (%)
The answer is to be given in %; state only the numeric part.

Sample Smiles	Unit Name	Observed Measurement
CCOc1nccc(-c2c(-c3ccc(F)cc3)ncn2C2CCNCC2)n1	%	16
Fc1cc(Cl)ccc1Nc1ccnc2cc(-c3ccc(CN4CCOCC4)o3)ccc12	%	0
Cc1ccc(NC(=O)c2ccnc(N3CCCCC3)c2)cc1-c1ccc(C(=O)NCC2CC2)cc1	%	3
Nc1ncc(-c2ccc3nccc(-c4ccncc4)c3c2)cc1S(=O)(=O)N1CCCCC1	%	3
CS(=O)(=O)c1cccc(CNc2nc(Nc3ccc4c(c3)CCC(=O)N4)ncc2C(F)(F)F)c1	%	0
N#Cc1cnc2cc(-c3cnc(CNCCN4CCOCC4)s3)ccc2c1Nc1ccc(Oc2ccccc2)cc1	%	4
Nc1ncc(-c2cn[nH]c2)c2scc(-c3ccc4c(c3)CCN4C(=O)Cc3ccccc3)c12	%	0

Entry "COc1cccc(CC(=O)N2CCc3cc(-c4cn(C)c5ncnc(N)c45)ccc32)c1" ; %Inh = 15

---

Recorded measurements of %Inh, one per entry
tested on: TNK2; conditions: concentration: 1 μM, replicates: in singlicate; n = 1
The answer is to be given in %; state only the numeric part.

Entry Cc1cccc(Nc2nc(N[C@H]3CCCC[C@H]3N)ncc2C(N)=O)c1.Cl [GSK986310] ; %Inh = 31

Entry CN(C)CCOc1ccc(-c2cc(-c3ccc(Cl)c(O)c3)c(-c3ccncc3)[nH]2)cc1.Cl.Cl [SB-684387] ; %Inh = 15

Entry COc1ccc(C)c(Nc2ccnc(Nc3ccc(-c4cnc[nH]4)cc3)n2)c1.Cl [GW784041] ; %Inh = 36

Entry Cl.N#CCc1ccc(Nc2nccc(Nc3ccc(Oc4ccccc4)cc3)n2)cc1 [GW639905] ; %Inh = 26

---

tested on: CAMK1B; settings: concentration: 1 μM, replicates: in singlicate; n = 1
Parameter: %Inh (%)
The answer is to be given in %; state only the numeric part.

The following compounds have reported results that may help.
Compound	Unit Name	%Inh
COc1ccc(C2=C(Nc3cccc(O)c3)C(=O)NC2=O)cc1 [SB-390766]	%	73
COC(=O)Nc1nc2cc(Oc3ccc(NC(=O)Nc4cccc(SC)c4)cc3)ccc2[nH]1.Cl [GW697999]	%	0

Please turn your attention to the following entry.
Entry O=C(Nc1n[nH]c2cc(-c3cccs3)ccc12)C1CC1 [SB-731284] ; %Inh = 0
